study-system: p38a activated, mitogen-activated protein kinase-activated protein kinase 2 (MAPKAP-K2 or MK-2) enzyme (Homo sapiens (Human), UniProt P49137)
Sequence (P49137 whole entry): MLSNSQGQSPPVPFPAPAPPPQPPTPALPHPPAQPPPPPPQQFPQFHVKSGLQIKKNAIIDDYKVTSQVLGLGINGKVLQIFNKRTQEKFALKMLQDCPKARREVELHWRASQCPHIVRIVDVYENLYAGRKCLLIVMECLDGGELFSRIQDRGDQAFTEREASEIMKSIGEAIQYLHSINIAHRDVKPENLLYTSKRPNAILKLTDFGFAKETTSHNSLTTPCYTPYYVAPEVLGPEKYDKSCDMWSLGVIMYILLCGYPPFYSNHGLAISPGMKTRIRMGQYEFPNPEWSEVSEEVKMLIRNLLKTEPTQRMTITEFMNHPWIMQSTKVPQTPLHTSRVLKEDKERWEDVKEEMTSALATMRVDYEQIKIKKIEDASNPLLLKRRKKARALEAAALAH
protocol-summary: MK2 Omnia continuous-read kinase assay for compound potency
experimental-setup: [MK-2]=0.4 nM, [ATP]=1.0 mM, [ST3-Sox]=10 μM
observable: IC50

C=CC(=O)Nc1cc(NC(=O)c2ccc3sc4c(c3c2)NC[C@@H](C)NC4=O)ccc1OCCOC: < 100 nM

Ask: Requested field: IC50. Item: C=CC(=O)Nc1cc(-c2cc(-c3cc4c([nH]3)C3(CCCNC3)CNC4=O)ccn2)ccc1N1CCN(C)CC1 (racemic)
Reply: < 100 nM

Ask: Could you share which IC50 value was measured for `C=CC(=O)Nc1cc(-c2cc3c(cn2)CCc2c-3[nH]c3c2C(=O)NCC3)ccc1OC` ?
Reply: < 100 nM

Ask: Entry under review: `C=CC(=O)Nc1cc(-c2cc3c(cn2)CCc2c-3[nH]c3c2C(=O)NC2(CC2)C3)ccc1F` . Reported IC50?
Reply: < 100 nM

Ask: So what's the measured IC50 for this one? `C=CC(=O)N1CCc2ccc(NC(=O)c3ccc4cc5n(c4c3)CCNC5=O)cc21`
Reply: 101 to 500 nM

Ask: GET /values?readout=IC50&item= `C=CC(=O)Nc1ccc2oc(-c3ccc4cc5n(c4c3)C3(CCC3)CNC5=O)nc2c1`
Reply: < 100 nM

Ask: What value of IC50 has been reported for the following compound? `C=CC(=O)Nc1cc(-c2ccc3c(ccc4sc5c(c43)NC[C@@H](C)NC5=O)n2)ccc1C`
Reply: < 100 nM

Ask: Which IC50 value is on record for `C[C@@H]1CNc2c(sc3ccc(C(=O)Nc4ccc5c(c4)N(C(=O)/C=C/CN(C)C)CCO5)cc23)C(=O)N1` ?
Reply: > 1000 nM

Ask: Need IC50 of `C=CC(=O)Nc1cc(-c2cc3c(cn2)CCc2c-3[nH]c3c2C(=O)NC2(CC2)C3)cnc1OC` , thanks.
Reply: < 100 nM

Ask: Any idea what IC50 was measured for `C=CC(=O)N[C@H]1CN(C(=O)c2ccc3cc4n(c3c2)CCNC4=O)CC[C@H]1C` ?
Reply: > 1000 nM

Ask: Item `C=CC(=O)Nc1cc(-c2cc3c(cn2)CCc2c-3[nH]c3c2C(=O)NC2(CC2)C3)ccc1N1CCN(C)CC1` has what recorded IC50?
Reply: < 100 nM

Ask: What does the data say about its IC50? Entry: `C=CC(=O)Nc1cc(-c2ccc3c(ccc4sc5c(c43)NC[C@@H](C)NC5=O)n2)cnc1C`
Reply: < 100 nM

Ask: Which IC50 is reported for this compound? `C=CC(=O)N1CCC[C@@H](NC(=O)c2ccc3sc4c(c3c2)NC[C@@H](C)NC4=O)C1`
Reply: < 100 nM

Ask: Which IC50 is listed for `C=CC(=O)N1CC(C)(C)Oc2ccc(NC(=O)c3ccc4sc5c(c4c3)NC[C@@H](C)NC5=O)cc21` ?
Reply: < 100 nM

Ask: IC50 for `CN(C)C/C=C/C(=O)Nc1ccccc1NC(=O)c1ccc2cc3n(c2c1)CCNC3=O` ?
Reply: > 1000 nM

Ask: May I ask what IC50 has been recorded for `C=CC(=O)N1CCOc2ccc(-c3nccc(-c4cc5n(c4)CCNC5=O)n3)cc21` ?
Reply: < 100 nM
